- Tested on: winter barley
- PROTOCOL DESCRIPTION: Test E winter barley
- Type: in vivo, Hordeum vulgare
- RUN PARAMETERS: Preemergence; Rate 1000 g/ha; 0 to 100 scale where 0 is no effect and 100 is complete control
Exercise: state measured Plant response rating, Barley (winter) for each of the compounds provided.
Give bare numbers.

compound="CC1CCCCC1n1c(=O)on(C(=O)N(c2ccc(F)cc2F)C(C)C)c1=O (centres unmarked)" target="winter barley" reported_property="Plant response rating, Barley (winter)" experimental_result=20
compound=Cc1cccc(C)c1-n1c(=O)on(C(=O)N(c2ccccc2)C(C)C)c1=O target="winter barley" reported_property="Plant response rating, Barley (winter)" experimental_result=50
compound=CC(C)N(C(=O)n1oc(=O)n(CC(F)(F)F)c1=O)c1ccc(F)cc1 target="winter barley" reported_property="Plant response rating, Barley (winter)" experimental_result=50
compound=CC(C)Cn1c(=O)on(C(=O)N(c2ccc(F)cc2)C(C)C)c1=O target="winter barley" reported_property="Plant response rating, Barley (winter)" experimental_result=50

Now for another entry.
Req: Any idea what Plant response rating, Barley (winter) was measured for Cc1nn(C)c(C)c1-n1c(=O)on(C(=O)N(c2ccc(F)cc2)C(C)C)c1=O ?
Resp: 60

###

- Test system: sugar beet
- PROTOCOL DESCRIPTION: Test B pre/postemergence sugar beet
- Format: in vivo, Beta vulgaris
- RUN PARAMETERS: Rate 1000 g/ha, Preemergence; scale 0 to 10 (0 no effect, 10 complete control)
REPORTED PROPERTY: Plant response rating, Sugarbeets
Answers are plain numbers.

Here's what some known entries look like.
compound=COc1ccc(-n2c(=O)on(C(=O)N(C3=CCOCC3)C(C)C)c2=O)cc1 experimental_result=0
compound=COP(=O)(CCn1c(=O)on(C(=O)N(c2ccc(F)cc2F)C(C)C)c1=O)OC experimental_result=3
compound=CC(C)N(C(=O)n1oc(=O)n(-c2cc(Cl)cc(Cl)c2)c1=O)C1=CCOCC1 experimental_result=0

Req: Reported Plant response rating, Sugarbeets for sugar beet, given CC(C)N(C(=O)n1oc(=O)n(C2CCCCC2C(F)(F)F)c1=O)c1ccc(F)cc1 (stereo not shown) ?
Resp: 6

###

- System: morningglory
- PROTOCOL DESCRIPTION: Test B pre/postemergence morningglory
- Assay type: in vivo, Ipomoea hederacea
- RUN PARAMETERS: Preemergence, Rate 125 g/ha; scale of 0 to 10 where 0 is no effect and 10 is complete control
REPORTED PROPERTY: Morningglory plant response rating
One number for each entry.

molecule="CC(C)N(C(=O)n1oc(=O)n(CC2CCCCO2)c1=O)c1ccc(F)cc1 (centres unmarked)" experimental_result=0
molecule=CC(C)N(C(=O)n1oc(=O)n(CCCCF)c1=O)c1ccccc1 experimental_result=2
molecule="CC(=O)OCC(CCl)n1c(=O)on(C(=O)N(c2ccc(F)cc2)C(C)C)c1=O (centres unmarked)" experimental_result=0

Below are 2 molecules. Give each one its Morningglory plant response rating.
1. CCOP(=O)(OCC)C(C)n1c(=O)on(C(=O)N(c2ccc(Cl)cc2)C(C)C)c1=O (centres unmarked)
2. CC(C)N(C(=O)n1oc(=O)n(CC(=O)C2CCC2)c1=O)c1ccccc1

Resp:
0
0

Provenance of the data: patent US6737383B1
